system: SF-295 CNS; experiment: NCI tumour cell line growth inhibition, 48 h
Measured property: TGI

// solved cases for TGI follow
Molecule	TGI
Nc1ccccc1N=Nc1c(S(=O)(=O)O)cc2cc(S(=O)(=O)O)cc(O)c2c1O	> 100 µM
Oc1cc(CN2COc3ccccc32)c(O)cc1CNC1CCCCC1	> 100 µM
COC(=O)C1=C(C(=O)OC)C2OC1c1cc3ccccc3cc12	38.3 µM
CC(=O)O[C@@H]1O[Si](C(C)(C)C)(C(C)(C)C)[C@H](C)[C@H]1C	> 100 µM
O=C(O)CCSC(=S)Nc1cccc(F)c1	> 100 µM
CCN(CC)CC(C)(C)C(=O)/C=C/c1ccc(/C=C/C(=O)C(C)(C)CN(CC)CC)cc1	2.54 µM
O=C(Nn1cnn2c(=O)c3ccccc3nc2c1=O)c1ccccc1	> 100 µM
C[N+](C)([O-])Cc1cc(-c2ccccc2)ccc1O	> 100 µM

// switching to the query molecule
query: State TGI (SF-295 CNS) of CCCOC1OC(CS(=O)(=O)O)C(O)C(O)C1O (centres undefined) .
result: > 100 µM

###

# key: entry, value: TGI
system: M14 melanoma; assay: NCI tumour cell line growth inhibition, 48 h

Consider the following illustrative entries.
Molecule	Measured property	Measurement
COc1ncnc2c1cnn2Cc1cn(CCCCO)nn1	TGI	> 100 µM
O=C(CCOS(=O)(=O)CF)N1CCN(C(=O)CCOS(=O)(=O)CF)CC1	TGI	> 100 µM
Cc1ccc(/C=C(\C#N)c2ccccc2)cc1	TGI	> 100 µM

query: Give recorded TGI. COc1ccc(CNc2cnc3cc(N)cc(N)c3n2)cc1
result: 43.9 µM

###

tested on: UACC-62 melanoma; experiment: NCI tumour cell line growth inhibition, 48 h
The following compounds are shown together with reported TGI values.

Compound	TGI
N#Cc1c(N)nc(N2CCSCC2)c(C#N)c1-c1ccc(O)cc1	26.2 µM

query: Complete the entry with TGI for O=C1C(Cl)=C(N2CCN(c3ccccn3)CC2)C(=O)c2ncccc21
result: 5.52 µM

query: Given the compound O=S(=O)(OI(O)CC(F)(F)F)C(F)(F)F , write its reported TGI.
result: > 100 µM

query: Complete the entry with TGI for C=C1NC(=O)C(CC(C(=O)C(=O)Nc2c(C)cccc2C(C)(C)C)C(=O)c2ccc3ccccc3c2)C(=O)N1 (stereo not given)
result: > 100 µM

query: Please give the documented TGI of O=C1CN(c2ccc(Cl)cc2)C(=O)CN1NCNN1CC(=O)N(c2ccc(Cl)cc2)CC1=O
result: > 100 µM

query: Provide measured TGI value, entry: CC(O)CN1c2ccccc2Sc2ccc(Cl)cc21 (stereo not given)
result: > 10 µM

query: Assign TGI to the following record: NC(N)=NC(N)=Nc1ccccc1 (tested in a mixture with another compound)
result: > 100 µM

query: Answer with the recorded TGI of C=C1C(=O)OC2CC3(C)CCCC(C)C3=CC12 (stereo not given) only.
result: 16.2 µM

query: Return reported TGI. Input compound: COc1ccc(/C=C2/CCS(=O)(=O)c3ccc(C)cc3C2=O)cc1OC
result: 22.7 µM

query: Respond only with TGI recorded for O=C(O)c1ccc(Nc2nc3cc(C(F)(F)F)ccc3nc2-c2ccccc2)cc1
result: 26.2 µM
